Below, each of the compounds is paired with its reported inhibition of growth at 20 µg/mL value.
Test system: Botrytis cinerea
Protocol: Fungistatic activity against Botryotinia fuckeliana assessed as mycelial growth inhibition at 20 ug/ml after 4 to 8 days relative to control
Format: functional
Setup conditions: read-out: GI
Readout kind: inhibition of growth at 20 µg/mL (%)

>>> print(df.to_string())
                           smiles_structure  recorded_value
0         Oc1ccc(C(=S)NC(=S)c2cccnc2)c(O)c1               0
1  Oc1ccc(C(=S)NN=C(c2ccccc2)c2ccccc2)c(O)c1               0
2  Oc1ccc(C(=S)Nc2ccc(OCc3ccccc3)cc2)c(O)c1              21
3   Oc1ccc(C(=S)NNC(=S)Nc2cccc(Cl)c2)c(O)c1               0
4  Oc1ccc(C(=S)NN=C2c3ccccc3-c3ccccc32)c(O)c1               0

###

Tested on: Phytophthora cactorum
Protocol: Fungistatic activity against Phytophthora cactorum assessed as mycelial growth inhibition at 200 ug/ml after 4 to 8 days relative to control
Type: functional
Setup conditions: read-out: GI
Readout kind: inhibition of growth at 200 µg/mL (%)

>>> df
                           smiles_structure                       readout_kind  recorded_value
0       CC(C)(C)c1nnc(NC(=S)c2ccc(O)cc2O)s1  inhibition of growth at 200 µg/mL               0
1  N#CCc1nn(-c2ccccc2)c(NC(=S)c2ccc(O)cc2O)c1C#N  inhibition of growth at 200 µg/mL              61
2      Oc1ccc(C(=S)n2c(Cl)nc3ccccc32)c(O)c1  inhibition of growth at 200 µg/mL              81
